biological target: catalytic domain of MMP-14 (cdMMP-14) (human, UniProt P50281 114-287, limits assumed, biotinylated (Sulfo-NHS-LC-Biotin) where immobilised via streptavidin); assay: cell-based or functional assay
Endpoint Label: IC50 by FRET Assay (µM)

{"Binder": "Fab 33D4 (Fab, V domains shown, also called R2C15; not shown: His tag at the C-terminus of the heavy chain) VH: EVQLVESGGGLVQPGGSLRLSCAASGFNIYYSSMHWVRQAPGKGLEWVASISPYSGSTYYADSVKGRFTISADTSKNTAYLQMNSLRAEDTAVYYCARSVHMKLSNKILSGWSWNNSFYAMDYWGQGTLVTVSS VL: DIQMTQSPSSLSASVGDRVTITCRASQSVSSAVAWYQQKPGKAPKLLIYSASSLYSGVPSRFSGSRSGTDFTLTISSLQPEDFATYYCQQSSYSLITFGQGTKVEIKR", "Unit Of Measurement": "µM", "Assay Value": 3.9}
{"Binder": "Fab 33C4 (Fab, V domains shown, also called R2C3; not shown: His tag at the C-terminus of the heavy chain) VH: EVQLVESGGGLVQPGGSLRLSCAASGFNLYSSSMHWVRQAPGKGLEWVASIYPYYGYTYYADSVKGRFTISADTSKNTAYLQMNSLRAEDTAVYYCARPTTSRVNKKLFRVSVLHPGSYGMDYWGQGTLVTVSS VL: DIQMTQSPSSLSASVGDRVTITCRASQSVSSAVAWYQQKPGKAPKLLIYSASSLYSGVPSRFSGSRSGTDFTLTISSLQPEDFATYYCQQASYLITFGQGTKVEIKR", "Unit Of Measurement": "µM", "Assay Value": 4.6}
{"Binder": "Fab 3A2 (Fab, V domains shown, also called R3C9; not shown: His tag at the C-terminus of the heavy chain) VH: EVQLVESGGGLVQPGGSLRLSCAASGFNLSSSSMHWVRQAPGKGLEWVASIYPSYSYTYYADSVKGRFTISADTSKNTAYLQMNSLRAEDTAVYYCARVKLQKDKSHQWIRNLVATPYGRYVMDYWGQGTLVTVSS VL: DIQMTQSPSSLSASVGDRVTITCRASQSVSSAVAWYQQKPGKAPKLLIYSASSLYSGVPSRFSGSRSGTDFTLTISSLQPEDFATYYCQQYGYPITFGQGTKVEIKR", "Unit Of Measurement": "µM", "Assay Value": 0.0097}
